Target: PD-1-Ig binding to PD-L1-TVMV-His (PD-L1-His) (Homo sapiens, UniProt Q9NZQ7)
Construct: hPDL1(19-239)-TVMV-His; made in house; host or cells: HEK293T cells
Sequence (Q9NZQ7 with tags, fused parts or gaps): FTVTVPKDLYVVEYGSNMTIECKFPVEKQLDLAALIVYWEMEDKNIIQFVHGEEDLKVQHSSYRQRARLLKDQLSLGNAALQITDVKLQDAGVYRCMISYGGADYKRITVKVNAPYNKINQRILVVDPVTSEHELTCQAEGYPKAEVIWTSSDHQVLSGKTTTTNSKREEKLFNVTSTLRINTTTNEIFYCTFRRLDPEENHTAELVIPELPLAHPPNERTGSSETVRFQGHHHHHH
Assay: PD-1/PD-L1 Homogenous Time-Resolved Fluorescence (HTRF) binding assay
Conditions: PD-1-Ig (20 nM) / PD-L1-His (10 nM); range classes
Non-standard residues stand in square brackets, D forms with d. Residues, ends and D or L forms follow the SMILES beside them. Hyp = O=C(O)[C@@H]1C[C@@H](O)CN1; NMeNle = CCCC[C@H](NC)C(=O)O; NMeA = CN[C@@H](C)C(=O)O; Dab = NCC[C@H](N)C(=O)O; Dap = NC[C@H](N)C(=O)O
IC50 for assorted compounds

Answered cases to consult:
CCCC[C@H]1C(=O)N(C)[C@@H](CCCC)C(=O)N[C@@H](CCC(=O)O)C(=O)N[C@H](C(=O)NCC(N)=O)CNCC(=O)N[C@@H](Cc2ccc(O)cc2)C(=O)N(C)[C@@H](C)C(=O)N[C@@H](CC(N)=O)C(=O)N2CCC[C@H]2C(=O)N[C@@H](CCC(N)=O)C(=O)N[C@@H](CC(C)C)C(=O)N2C[C@H](O)C[C@H]2C(=O)N[C@@H](Cc2c[nH]c3ccccc23)C(=O)N[C@@H](CC(N)=O)C(=O)N[C@@H](Cc2cn(CC(=O)O)c3ccccc23)C(=O)N1C | 1 to 9.9 nM
CCCC[C@H]1C(=O)N(C)[C@@H](CCCC)C(=O)N[C@@H](CC(C)C)C(=O)N[C@H](C(=O)NCC(N)=O)CNCC(=O)N[C@@H](Cc2ccc(OC)cc2)C(=O)N2CCCC[C@H]2C(=O)N[C@@H](CC(N)=O)C(=O)N2CCC[C@H]2C(=O)N[C@@H](CN)C(=O)N[C@@H](CC(C)C)C(=O)N2C[C@H](O)C[C@H]2C(=O)N[C@@H](Cc2c[nH]c3ccccc23)C(=O)N[C@@H](CCN)C(=O)N[C@@H](Cc2cn(CC(=O)O)c3ccccc23)C(=O)N1C | 1 to 9.9 nM
CCCC[C@H]1C(=O)N(C)[C@@H](CCCC)C(=O)N[C@@H](CC(C)C)C(=O)N[C@@H](C)C(=O)NCC(=O)N[C@@H](Cc2ccc(O)cc2)C(=O)N(C)[C@@H](C)C(=O)N[C@@H](CC(N)=O)C(=O)N2CCC[C@H]2C(=O)N[C@@H](CN)C(=O)N[C@@H](CC(C)C)C(=O)N2C[C@H](O)C[C@H]2C(=O)N[C@@H](Cc2c[nH]c3ccccc23)C(=O)N[C@@H](CCN)C(=O)N[C@@H](Cc2c[nH]c3ccccc23)C(=O)N1C [Example 5006] (cyclo(AGY[NMeA]NP[Dap]L[Hyp]W[Dab]W[NMeNle][NMeNle]L)) | 10 to 99 nM
CCCC[C@H]1C(=O)N(C)[C@@H](CCCC)C(=O)N[C@@H](CC(C)C)C(=O)N[C@H](C(=O)NCC(N)=O)CNCC(=O)N[C@@H](Cc2ccc(F)cc2)C(=O)N(C)[C@@H](C)C(=O)N[C@@H](CC(N)=O)C(=O)N2CCC[C@H]2C(=O)N[C@@H](CCC(N)=O)C(=O)N[C@@H](CC(C)C)C(=O)N2C[C@H](O)C[C@H]2C(=O)N[C@@H](Cc2c[nH]c3ccccc23)C(=O)N[C@@H](CC(N)=O)C(=O)N[C@@H](Cc2cn(CC(=O)O)c3ccccc23)C(=O)N1C | 1 to 9.9 nM

Query :: Query IC50 for CCCC[C@H]1C(=O)N(C)[C@@H](CCCC)C(=O)N[C@@H](CC(C)C)C(=O)N[C@H](C)C(=O)NCC(=O)N[C@@H](Cc2ccc(O)cc2)C(=O)N(C)[C@@H](C)C(=O)N[C@@H](CC(N)=O)C(=O)N2CCC[C@H]2C(=O)N[C@@H](CN)C(=O)N[C@@H](CC(C)C)C(=O)N2C[C@H](O)C[C@H]2C(=O)N[C@@H](Cc2c[nH]c3ccccc23)C(=O)N[C@@H](CCN)C(=O)N[C@@H](Cc2c[nH]c3ccccc23)C(=O)N1C [Example 5007] (cyclo([Dab]W[NMeNle][NMeNle]L[dA]GY[NMeA]NP[Dap]L[Hyp]W))
Result :: 1 to 9.9 nM
